Origin of the recorded values: patent US20230235078A1

Target Of Assay: T1, Human DDR1 extracellular domain (ECD) protein (human, UniProt Q08345 21-417)
T1 construct: it is treated here as the same molecule; also called recombinant human DDR1 ECD; huDDR1 ECD; not shown: 6xHIS-tag
T1 sequence (Q08345 21-417): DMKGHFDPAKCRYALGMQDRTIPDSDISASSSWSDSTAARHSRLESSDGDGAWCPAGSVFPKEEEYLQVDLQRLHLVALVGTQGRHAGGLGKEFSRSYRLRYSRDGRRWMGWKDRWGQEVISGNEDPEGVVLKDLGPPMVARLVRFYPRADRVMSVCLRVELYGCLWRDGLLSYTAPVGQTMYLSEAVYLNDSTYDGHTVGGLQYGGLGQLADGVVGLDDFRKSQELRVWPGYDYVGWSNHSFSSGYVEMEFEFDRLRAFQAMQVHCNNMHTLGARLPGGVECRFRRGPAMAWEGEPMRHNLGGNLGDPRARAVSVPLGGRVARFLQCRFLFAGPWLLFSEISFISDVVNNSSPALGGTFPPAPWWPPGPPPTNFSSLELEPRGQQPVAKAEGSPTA
Method Description: ELISA on DDR1, antibody at 10 and 1 µg/ml

Binder: DDR1-1 (antibody, V domains shown, also called DDR1-1K/DDR1-1H) VH: QSVEESGGRLVTPGTPLTLTCTVSGFSLSRYAMTWVRQAPGKGLEWIGIIGSSGLTYFATWAKGRFTISKTSTTVDLKITSPTTEDTATYFCARGMWYDDSDDYEDYFNLWGPGTLVTISS VL: ELVLTQTPASVSAAVGGTVTINCQASQNIYSNLAWYQQKPGQPPKLLIYGASNLESGVPSRFKGSGSGTQFTLTISDLECDDAATYYCQSGYYSSSTDIAFGGGTEVVVK
binding result: binds
